Data provenance: patent US20180362629A1

# Study target: T1, recombinant canine β NGF (canine, UniProt Q29074 110-229 (pig entry))
# T1 construct: also called canine NGF
# T1 chain: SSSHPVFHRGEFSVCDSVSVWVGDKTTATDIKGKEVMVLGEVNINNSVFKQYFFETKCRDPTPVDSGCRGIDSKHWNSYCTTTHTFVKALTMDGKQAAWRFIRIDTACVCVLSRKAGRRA
# Assay comment: SPR (Biacore T100), antibody captured on goat anti-canine IgG, canine NGF injected
pKd: −log10 of the molar value.
Quantity name: pKd

{"columns": ["Binder", "Result number"],
 "data": [
  ["Mu82 Canine IgG1/k Chimera (antibody, V domains shown, The exact junction was not checked; also called PR-1290658; lot 1785732) VH: QVQLKESGPGLVAPSQSLSITCTVSGFSLTGYNINWVRQPPGKGLEWLGMIWGYGDTDYNSALKSRLSISKDNSKSQVFLKMNSLQTDDTARYYCARDHYGGNDWYFDVWGTGTTVTVSS VL: DIQMTQTTSSLSASLGDRVTITCRASQDITNYLNWYQQKPDGTVKLLIYYTSRLHSGVPSRFSGSGSGTDYSLTISNLDQEDIATYFCQQGKTLPRTFGGGTKLEIKR", 11.80]
]}
